Experimental Target: HLA-A*24:02 (Homo sapiens, UniProt P04439, D101N/D140Y/D185E/E176V/E190D/F33S/G103R/G107R/I119L/I121M/I306V/K335N/L105A/L180Q/L300P/N151K/N90K/Q86E/Q94H/R106L/R138H/R89G/T104I/T345S/V100E/W191G/Y123F)
Experiment: MHC binding assay, UV-ligand exchange ELISA
Measurement Parameters: peptide exchange yield, binding to HLA-A*24:02
Endpoint Label: Peptide exchange

1. 116 (IYLTKSNLVNM; listed as Homo sapiens) [compound 116]    ++++ (75% = ++++)
2. 180 (QYLTYYPSF; listed as Homo sapiens) [compound 180]    ++++ (75% = ++++)
3. 115 (LWEEKPVCL; listed as Homo sapiens) [compound 115]    ++ (20% = ++)
4. 189 (IWRALGSLF; listed as Homo sapiens) [compound 189]    ++++ (75% = ++++)
5. 31 (VFLLLPYPRF; listed as Homo sapiens) [compound 31]    ++++ (75% = ++++)
6. 76 (VQSGVPSRF; listed as Homo sapiens) [compound 76]    ++ (20% = ++)
7. 6 (SHSLPAFTL; listed as Homo sapiens) [compound 6]    ++ (20% = ++)
8. 3 (VYIASSFKI; listed as Homo sapiens) [compound 3]    ++++ (75% = ++++)
9. 173 (IFTGRNAYF; listed as Homo sapiens) [compound 173]    ++++ (75% = ++++)
10. 67 (GRFWLPFNF; listed as Homo sapiens) [compound 67]    ++ (20% = ++)
11. 123 (TYLESSVRI; listed as Homo sapiens) [compound 123]    ++++ (75% = ++++)
12. 133 (KFPPSASEF; listed as Homo sapiens) [compound 133]    ++++ (75% = ++++)
13. 164 (SHSSPTVSF; listed as Homo sapiens) [compound 164]    ++ (20% = ++)
14. 47 (LYIFTTRPF; listed as Homo sapiens) [compound 47]    ++++ (75% = ++++)
15. 69 (KYPTIICGF; listed as Homo sapiens) [compound 69]    ++++ (75% = ++++)
16. 40 (LYQTTIELF; listed as Homo sapiens) [compound 40]    ++++ (75% = ++++)
17. 14 (ILAPPQRISF; listed as Homo sapiens) [compound 14]    ++++ (75% = ++++)
18. 194 (VLYPSHSSF; listed as Homo sapiens) [compound 194]    ++ (20% = ++)

----------
Experimental Target: HLA-A*24:02 (Homo sapiens, UniProt P04439, D101N/D140Y/D185E/E176V/E190D/F33S/G103R/G107R/I119L/I121M/I306V/K335N/L105A/L180Q/L300P/N151K/N90K/Q86E/Q94H/R106L/R138H/R89G/T104I/T345S/V100E/W191G/Y123F)
Experiment: MHC binding assay, UV-ligand exchange ELISA
Measurement Parameters: peptide exchange yield, binding to HLA-A*24:02
Endpoint Label: Peptide exchange

1) 16 (NFHTLAQQLLF; listed as Homo sapiens) [compound 16]    ++++ (75% = ++++)
2) 165 (FYNPRPPLI; listed as Homo sapiens) [compound 165]    ++++ (75% = ++++)
3) 201 (VWILQKVNLAF; listed as Homo sapiens) [compound 201]    +++ (50% = +++)
4) 62 (SFSLLLPYL; listed as Homo sapiens) [compound 62]    +++ (50% = +++)
5) 87 (LHLNPGLSF; listed as Homo sapiens) [compound 87]    ++ (20% = ++)
6) 195 (AWNESSAWLL; listed as Homo sapiens) [compound 195]    ++++ (75% = ++++)
7) 177 (SYLKDHLSL; listed as Homo sapiens) [compound 177]    ++++ (75% = ++++)
8) 13 (LYDTVTHTF; listed as Homo sapiens) [compound 13]    ++++ (75% = ++++)
9) 80 (IFDLSDPRF; listed as Homo sapiens) [compound 80]    ++ (20% = ++)
10) 183 (VFVISGSHLF; listed as Homo sapiens) [compound 183]    ++++ (75% = ++++)
11) 43 (VFIPSVINL; listed as Homo sapiens) [compound 43]    ++++ (75% = ++++)
12) 33 (AYIPFPPLI; listed as Homo sapiens) [compound 33]    ++++ (75% = ++++)
13) 7 (IYIPTNSIYKF; listed as Homo sapiens) [compound 7]    ++++ (75% = ++++)
14) 49 (IYFHLNNWTI; listed as Homo sapiens) [compound 49]    ++++ (75% = ++++)
15) 132 (LYLETRSEF; listed as Homo sapiens) [compound 132]    ++++ (75% = ++++)
16) 158 (FQLSGPVTF; listed as Homo sapiens) [compound 158]    ++ (20% = ++)
17) 160 (EYLGSENVF; listed as Homo sapiens) [compound 160]    +++ (50% = +++)
